tested on: PC-3 prostate; assay: NCI tumour cell line growth inhibition, 48 h
Measured Endpoint: TGI

(Q) Tell me the measured TGI of CN1C(=O)N/C(=C\c2ccc(S(=O)(=O)N/N=C\C(O)C(O)C(O)CO)cc2)C1=O (stereo unspecified) , please.
(A) > 100 µM

(Q) Tell me the measured TGI of O=[As](O)(O)c1ccc(N=Nc2ccc([As](=O)(O)O)cc2)cc1 , please.
(A) > 100 µM

(Q) Tell me the measured TGI of O=C(Nc1cccc(Oc2nnc(Cl)c3ccccc23)c1)Nc1ccc(Cl)c(C(F)(F)F)c1 , please.
(A) 2.51 µM

(Q) Tell me the measured TGI of CCC1(CCSC(=N)N)C(=O)NC(=O)NC1=O , please.
(A) > 100 µM

(Q) Tell me the measured TGI of O=C(c1ccc2ccccc2c1)N(Cc1cccnc1)C(=S)N(Cc1cccnc1)C(=O)c1ccc2ccccc2c1 , please.
(A) > 100 µM

(Q) Tell me the measured TGI of C=CC(C)(O)/C=C/C=C(\C)C(CC1OC1(C)C)OC(=O)/C(C)=C\C (stereo unspecified) , please.
(A) > 100 µM

(Q) Tell me the measured TGI of ClCCN1CCOC1=Nc1ccc2c(c1)CCCC2 , please.
(A) 23 µM

(Q) Tell me the measured TGI of CN(C)c1nc2n(CCO)c(-c3ccccc3)c(-c3ccccc3)nc-2c(=O)n1 , please.
(A) > 100 µM

(Q) Tell me the measured TGI of CC(=O)c1c(C)n(C)c2c1nnc1ccccc12 , please.
(A) > 100 µM

(Q) Tell me the measured TGI of C=C(C)C1CC2(C)C(C)CC(OC(=O)/C(C)=C\C)CC2C(OC(=O)/C(C)=C\C)C1O (stereo unspecified) , please.
(A) > 100 µM

(Q) Tell me the measured TGI of N#Cc1nc(COCc2ccccc2)oc1N , please.
(A) > 100 µM

(Q) Tell me the measured TGI of CCCCCC[C@H]1CC(=O)C2CCCC[C@@]23CC[C@H](CCl)N13 (stereo partly specified) (tested in a mixture with another compound) , please.
(A) 90.6 µM

(Q) Tell me the measured TGI of COc1ccc(/C=C2\N=C3Sc4c(nc[nH]c4=O)N3C2=O)cc1 , please.
(A) > 100 µM

(Q) Tell me the measured TGI of CCOC(=O)C(C)(C(=O)OCC)/C(Cl)=C\Cl , please.
(A) > 100 µM

(Q) Tell me the measured TGI of CC1CCN(CCCCCOc2ccc3oc4cc(Cl)ccc4c(=O)c3c2)CC1 , please.
(A) 16.4 µM

(Q) Tell me the measured TGI of COc1cc2nccc(Oc3ccc(NC(=O)C4(C(=O)Nc5ccc(F)cc5)CC4)cc3)c2cc1Oc1ccc(N)cn1 , please.
(A) > 100 µM

(Q) Tell me the measured TGI of C=CCn1c(C23CC4CC(CC(C4)C2)C3)n[nH]c1=S , please.
(A) > 100 µM

(Q) Tell me the measured TGI of CCOP(=O)(OCC)C(N)Cc1ccc(OC)c(OC)c1 (stereo unspecified) , please.
(A) > 100 µM

(Q) Tell me the measured TGI of O=C1/C(=C/c2ccc(Cl)cc2)N=C(c2ccccc2)N1c1nc2ccccc2s1 , please.
(A) > 100 µM

(Q) Tell me the measured TGI of Cc1ccc(C)c(NC(=O)NCc2ccc(Cl)cc2)c1 , please.
(A) > 100 µM

(Q) Tell me the measured TGI of COc1ccc(-c2nn(-c3cccc(NC(=O)c4ccc5c(c4)OCCO5)c3)cc2-c2ccncc2)cc1Cl , please.
(A) 18.1 µM

---

Give measured TGI for each item. Keep answers brief.
test system: HOP-62 NSCLC; assay: NCI tumour cell line growth inhibition, 48 h

(Q) Tell me the measured TGI of O=c1oc2nc(-c3ccccc3)cc(C(F)(F)F)c2n1Cc1ccccc1 , please.
(A) > 100 µM

(Q) Tell me the measured TGI of N=c1nc2n(cc1F)[C@@H]1O[C@H](CO)[C@@H](O)[C@@H]1O2 , please.
(A) > 100 µM

(Q) Tell me the measured TGI of O=C1c2ccccc2C(=O)c2c(NCCNCCO)ccc(O)c21 , please.
(A) 14.5 µM

(Q) Tell me the measured TGI of CCOC(=O)c1c2c(n(Cc3ccccc3)c1C)-c1ccccc1C(=O)C2=O , please.
(A) 27.1 µM

(Q) Tell me the measured TGI of Nc1c(-c2nc3ccccc3o2)sc(=S)n1-c1ccc(Cl)cc1 , please.
(A) 15.8 µM

(Q) Tell me the measured TGI of CC1CCC(O)(C(C)(C(=O)O)c2ccccc2)CC1 (centres undefined) , please.
(A) > 100 µM

(Q) Tell me the measured TGI of Cc1nn(C(=O)c2ccc(Cl)cc2)c2c1C(c1cccc([N+](=O)[O-])c1)SC(N)=N2 (centres undefined) , please.
(A) > 10 µM

(Q) Tell me the measured TGI of O=C(O)[C@@H]1CCC(=O)N1C(c1ccc2c(c1)OCO2)c1ccc2c(c1)OCO2 , please.
(A) > 100 µM

(Q) Tell me the measured TGI of COC(=O)[C@]12CC[C@@H](C)[C@H](C)[C@@H]1C1=CC[C@@H]3[C@@]4(C)C(C=O)=C[C@@](C)(COC(=O)c5ccco5)[C@@H]4C(=O)C[C@@]3(C)[C@]1(C)CC2 , please.
(A) > 100 µM

---

test system: HL-60(TB) leukemia; experiment: NCI tumour cell line growth inhibition, 48 h
Measured Endpoint: TGI (µM)
Kindly provide the numeric value in µM only, without the unit symbol.

(Q) Can you look up TGI on HL-60(TB) leukemia for C=C1CC[C@@H](Br)C(C)(C)[C@]12CCC(C)(O)C(Cl)C2 (stereo not given in full) ?
(A) 42.2

(Q) Can you look up TGI on HL-60(TB) leukemia for COC1CCC(O)C(/C=C/[N+](=O)[O-])C1 (stereo not given) ?
(A) 5.29

(Q) Can you look up TGI on HL-60(TB) leukemia for O=C(Nc1ccc(Oc2ccc3nc(NC(=O)c4ccccc4)[nH]c3c2)cc1)Nc1cc(C(F)(F)F)ccc1F ?
(A) 3.29

(Q) Can you look up TGI on HL-60(TB) leukemia for C[C@@H]1CC[C@@H]2[C@@H]1[C@H](OC(=O)/C=C/c1ccccc1)[C@]1(C3CCCCC3)C[C@@H](NC(=O)CO)[C@@]2(C)O1 ?
(A) 40.4

(Q) Can you look up TGI on HL-60(TB) leukemia for O=C(Nc1ccc(Cl)cc1F)c1cc(I)ccc1O ?
(A) 6.87

---

system: U251 CNS; test: NCI tumour cell line growth inhibition, 48 h
Give measured TGI for each item. Keep answers brief.

(Q) Tell me the measured TGI of CC(C)(C)CC(C)(C)c1cc2c(O)c(c1)Cc1cc(C(C)(C)CC(C)(C)C)cc(c1O)Cc1cc(C(C)(C)CC(C)(C)C)cc(c1O)Cc1cc(C(C)(C)CC(C)(C)C)cc(c1O)Cc1cc(C(C)(C)CC(C)(C)C)cc(c1O)Cc1cc(C(C)(C)CC(C)(C)C)cc(c1O)C2 , please.
(A) > 100 µM

(Q) Tell me the measured TGI of COc1c(NC(C)=O)cc(C)cc1NC(C)=O , please.
(A) > 100 µM

(Q) Tell me the measured TGI of C=CC(C=O)C1(O)CCOC(=O)/C1=C\N (stereo not given) , please.
(A) > 100 µM

(Q) Tell me the measured TGI of Cn1cc(C2=C(c3cccnc3)C(=O)NC2=O)c2ccccc21 , please.
(A) > 25 µM

(Q) Tell me the measured TGI of CC(=O)O[C@]1(C)OC(=O)[C@@H](C)N1[N+](=O)[O-] , please.
(A) > 100 µM

---

system: CAKI-1 renal; assay: NCI tumour cell line growth inhibition, 48 h
Give measured TGI for each item. Keep answers brief.

(Q) Tell me the measured TGI of Cn1cc(-c2cnc(-c3cn(C)c4ccccc34)cn2)c2ccccc21 , please.
(A) > 100 µM

(Q) Tell me the measured TGI of Cc1noc(C)c1-c1cc(O)cc(C(O)c2ccccc2)c1 (stereo not given) , please.
(A) > 100 µM

(Q) Tell me the measured TGI of CN1C(=O)N/C(=C\c2ccc(S(=O)(=O)N/N=C\C(O)C(O)C(O)CO)cc2)C1=O (stereo not given) , please.
(A) > 100 µM

(Q) Tell me the measured TGI of O=C(CCCN1CCOCC1)Nc1ccc(Cn2nnc3c2C(=O)c2nnn(Cc4ccc(NC(=O)CCCN5CCOCC5)cc4)c2C3=O)cc1 , please.
(A) > 100 µM

(Q) Tell me the measured TGI of Oc1ccc2oc3c(O)c4ccccc4cc3c2c1 , please.
(A) 68.7 µM

(Q) Tell me the measured TGI of COc1cc(=O)n2c3ccccc3n(C)c2c1C#N , please.
(A) > 100 µM

(Q) Tell me the measured TGI of Cc1cc2c(cc1C)[n+](=O)c(C#N)c(Cl)n2[O-] , please.
(A) 19.7 µM

(Q) Tell me the measured TGI of Cc1ccc(/C(=C\C(=O)C(=O)NC23CC4CC(CC(C4)C2)C3)Sc2ccccc2)cc1 , please.
(A) > 10 µM

(Q) Tell me the measured TGI of CCN(CC)CCCNc1nc(=O)[nH]c(C)c1C(=O)Nc1c2ccccc2nc2ccccc12 , please.
(A) 56 µM

(Q) Tell me the measured TGI of O=C(O)CCSCc1ccc(I)cc1 , please.
(A) > 100 µM
